// Vd lookup, one value per entry
Assay: Volume of distribution at steady state in rat at 0.5 mg/kg, iv and 2 mg/kg, po
Format: ADME, organism-based
Details: in vivo, read-out: Vdss

Enquiry: Would you kindly share the measured Vd for C[C@@H]1CN(C(=O)c2ccccc2)CCN1c1nnc(-c2ccc(C(F)(F)F)cc2)c2ccncc12 ?
Return: 3.5 L/kg

Enquiry: Would you kindly share the measured Vd for C[C@@H]1CN(C(=O)c2ccccc2)CCN1c1nnc(-c2ccc(CO)cc2)c2ccccc12 ?
Return: 1.8 L/kg

Enquiry: Would you kindly share the measured Vd for C[C@@H]1CN(C(=O)c2ccccc2)CCN1c1nnc(-c2ccc(CC(N)=O)cc2)c2ccccc12 ?
Return: 1.4 L/kg

Enquiry: Would you kindly share the measured Vd for C[C@@H]1CN(C(=O)c2ccccc2)CCN1c1nnc(-c2ccccc2)c2ccncc12 ?
Return: 1.4 L/kg

Enquiry: Would you kindly share the measured Vd for C[C@@H]1CN(C(=O)c2ccccc2)CCN1c1nnc(-c2ccccc2)c2ccccc12 ?
Return: 1.7 L/kg
